Give TGI for every item shown.
# Tested on: MDA-N
# methodSummary: NCI tumour cell line growth inhibition, 48 h
Value expressed in µM; do not type the unit.

TGI in this record for O=C(OCCN1CCCCCC1)C(c1ccsc1)C1CCCCC1 (configuration not stated) : 28.4

compound CC(C)NCC(O)c1cc(OCc2ccccc2)c(OCc2ccccc2)cc1NC(=O)CCC(=O)O (configuration not stated) , TGI observed: 5.97

TGI recorded for this compound, O=Cc1cc2c(s1)C(=O)c1sccc1C2=O , is 0.0932

---

Could you please report measured TGI for the items listed next?
# Tested on: MALME-3M melanoma
# methodSummary: NCI tumour cell line growth inhibition, 48 h

Data point: Cc1cc(C)c2cc(N)c(Cl)nc2n1 ; TGI = > 100 µM

The reported TGI of the compound CCC1=C(c2ccc(OC)cc2)CC[C@@]2(CCNC2=O)[C@@H]1C was > 100 µM

Record COC1CC(OC2C(C)OC(OC3C(C)OC(OC4C(C)OC(O[C@H]5CC[C@@]6(C)C(=CC[C@]7(O)[C@@H]6C[C@@H](OC(=O)/C=C/c6ccccc6)[C@@]6(C)[C@]7(O)CC[C@@]6(O)C(C)=O)C5)CC4OC)CC3OC)CC2OC)OC(C)C1O (stereo partly drawn) , field TGI: > 12.5 µM
